B1: library; numbered along this chain (parent)
chain: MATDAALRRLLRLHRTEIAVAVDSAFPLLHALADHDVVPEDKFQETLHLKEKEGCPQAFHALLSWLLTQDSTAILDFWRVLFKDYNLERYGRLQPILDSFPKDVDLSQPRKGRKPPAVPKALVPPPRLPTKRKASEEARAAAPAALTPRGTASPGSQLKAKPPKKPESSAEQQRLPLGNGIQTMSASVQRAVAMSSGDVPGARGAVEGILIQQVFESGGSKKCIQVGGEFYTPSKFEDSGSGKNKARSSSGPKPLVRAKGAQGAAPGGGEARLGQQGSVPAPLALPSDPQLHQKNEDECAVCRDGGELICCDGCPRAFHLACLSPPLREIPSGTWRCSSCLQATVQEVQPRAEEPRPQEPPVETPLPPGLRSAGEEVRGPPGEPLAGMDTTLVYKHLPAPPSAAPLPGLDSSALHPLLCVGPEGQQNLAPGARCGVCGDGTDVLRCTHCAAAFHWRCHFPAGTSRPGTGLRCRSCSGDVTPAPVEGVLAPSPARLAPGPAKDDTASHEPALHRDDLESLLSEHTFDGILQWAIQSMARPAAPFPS

- Variants of: B1
- Assay method text: AIRE transcriptional activation functional score (insulin promoter-GFP; nonsense median 0, synonymous median 1) (normalised score); higher = higher AIRE activity (more reporter activation)
- Experimental parameters: with insulin promoter-GFP reporter in HEK293
Measured parameter: AIRE transcriptional activation functional score
Kindly provide the number alone.

Some entries whose results are on file:
For record `L106F` the listed AIRE transcriptional activation functional score is 0.883

In plain terms, `P154D` has a documented AIRE transcriptional activation functional score of 0.0296

Short answer for `L428S` : AIRE transcriptional activation functional score was 1.15

The recorded AIRE transcriptional activation functional score for `R465T` is -0.654

Item: `F43W` | AIRE transcriptional activation functional score: 0.0722

Recorded AIRE transcriptional activation functional score (variant `P483L` ): 0.603

---
For this variant ( `Q157H` ), measured AIRE transcriptional activation functional score is 1.34

GET /value?item= `M536N` &field=AIRE transcriptional activation functional score returns 0.506

// AIRE transcriptional activation functional score lookup, variant = `I181Y` , result: 1.13

Given item `W531M` , the value recorded as its AIRE transcriptional activation functional score is 0.434

Item: `R149Q` | AIRE transcriptional activation functional score: 1.71
